inhibition for assorted compounds
- assay system: Protein deacetylase HDAC6 (Homo sapiens)
- reported conditions: at 10 µM
In all, about 5,600 compounds went through this assay and about 390 (7%) showed an effect of 50% or more. This is one part of a sample in which strong results are shown more often than they occur.
measured endpoint: inhibition (%)

>>> df
                           molecular_string  units_of_measure  observed
0  O=[N+]([O-])c1c(Nc2cc(F)cc(Cl)c2)ccc2nonc12                 %      22.6
1  COC(c1ccccc1)(c1ccccc1)[C@H](Oc1nc(C)cc(C)n1)C(=O)O                 %     -8.71
2                           N=C(N)NCCC(=O)O                 %      1.27
3             CC(=O)Oc1ccccc1C(=O)Nc1ccccc1                 %      87.4
4          Nc1nc(N)c2nc(-c3cccc(O)c3)cnc2n1                 %      88.7
5  Oc1cccc(-c2c3nc(c(-c4cccc(O)c4)c4ccc([nH]4)c(-c4cccc(O)c4)c4nc(c(-c5cccc(O)c5)c5ccc2[nH]5)CC4)C=C3)c1                 %      36.9
6   CCCCC(=O)NCCc1c(Cc2ccccc2)[nH]c2ccccc12                 %     -8.08

The measured values listed here are drawn from ChEMBL document CHEMBL4808148.
